meta.source: patent US20100056468A1

System: OCVR4
Experiment: In vitro cell proliferation assay (WST.1, Table 5)
Type: cell-based
Details: Homo sapiens, 72 h; OCVR4, day 3
Protocol: These cell lines were grown in Iscove's MDM supplemented with 5% fetal calf serum (FCS), 50 μM 2-mercaptoethanol, 100 μg/ml penicillin, and 100 μg/ml streptomycin. […] Cell lines were seeded in triplicate at 10^4 cells/100 μl in 96-well plates. […] WST.1 assay is a calorimetric assay for the nonradioactive quantification of cell proliferation, cell viability, and cytotoxicity. […] These OD values are plotted against concentrations of different compounds and IC50 is determined for each compound.
pIC50: −log10 of the molar value.
recordedMetric: pIC50

| compound | result |
| --- | --- |
| O=c1cc(I)n([C@@H]2O[C@H](CO)C(O)C2O)c(=O)[nH]1 (stereo partly drawn) | < 4.30 |
| N#Cc1cc(=O)[nH]c(=O)n1[C@@H]1O[C@H](CO)C(O)C1O (stereo partly drawn) | < 4.30 |
| CCOC(=O)c1cc(=O)[nH]c(=O)n1[C@@H]1O[C@H](CO)C(O)C1O (stereo partly drawn) | < 4.30 |
| [N-]=[N+]=Nc1cc(=O)[nH]c(=O)n1[C@@H]1O[C@H](CO)C(O)C1O (stereo partly drawn) | < 4.30 |
| Nc1c(F)c(=O)[nH]c(=O)n1[C@@H]1O[C@H](CO)[C@@H](O)[C@H]1O | 5.70 |
| CN(C)c1cc(=O)[nH]c(=O)n1C1OC(CO)C(O)C1O (stereo not drawn) | < 4.30 |
| Nc1cc(=O)[nH]c(=O)n1[C@@H]1O[C@H](CO)C(O)C1O (stereo partly drawn) | < 4.30 |
| [N-]=[N+]=Nc1c(F)c(=O)[nH]c(=O)n1[C@@H]1O[C@H](CO)[C@@H](O)[C@H]1O | 5.82 |
| O=c1[nH]c(=O)n([C@@H]2O[C@H](CO)C(O)C2O)c(I)c1Br (stereo partly drawn) | < 4.30 |

---

Entries annotated with measured IC50
System: OCI-Ly-7
Assay: In vitro cell proliferation assay (WST.1, Table 5)
Type: cell-based
Conditions: Homo sapiens, OCI-Ly7, 72 h; OCI-Ly-7, day 3

| compound | IC50 |
| --- | --- |
| CN(C)c1cc(=O)[nH]c(=O)n1C1OC(CO)C(O)C1O (centres unmarked) | > 50 µM |
| O=Cc1cc(=O)[nH]c(=O)n1C1OC(CO)C(O)C1O (centres unmarked) | > 50 µM |
| [N-]=[N+]=Nc1c(F)c(=O)[nH]c(=O)n1[C@@H]1O[C@H](CO)[C@@H](O)[C@H]1O | 0.7 µM |
| O=c1cc(I)n([C@@H]2O[C@H](CO)C(O)C2O)c(=O)[nH]1 (some centres unmarked) | > 50 µM |
| CNc1cc(=O)[nH]c(=O)n1C1OC(CO)C(O)C1O (centres unmarked) | > 50 µM |

---

Entries annotated with measured IC50
System: HS58T
Assay: In vitro cell proliferation assay (WST.1, Table 5)
Format: cell-based
Conditions: Homo sapiens, 72 h, day 3

| compound | IC50 |
| --- | --- |
| Nc1cc(=O)[nH]c(=O)n1[C@@H]1O[C@H](CO)C(O)C1O (stereo partly drawn) | > 50 µM |
| N#Cc1cc(=O)[nH]c(=O)n1[C@@H]1O[C@H](CO)C(O)C1O (stereo partly drawn) | > 50 µM |
| Cc1cc(=O)[nH]c(=O)n1C1OC(CO)C(O)C1O (stereo not drawn) | > 50 µM |
| [N-]=[N+]=Nc1cc(=O)[nH]c(=O)n1[C@@H]1O[C@H](CO)C(O)C1O (stereo partly drawn) | > 50 µM |
| O=c1[nH]c(=O)n([C@@H]2O[C@H](CO)C(O)C2O)c(I)c1Br (stereo partly drawn) | > 50 µM |
| CC(=O)OCC1OC(n2c(I)cc(=O)[nH]c2=O)C(O)C1O (stereo not drawn) | > 50 µM |
| CNc1cc(=O)[nH]c(=O)n1C1OC(CO)C(O)C1O (stereo not drawn) | > 50 µM |
| O=c1cc(I)n([C@@H]2O[C@H](CO)C(O)C2O)c(=O)[nH]1 (stereo partly drawn) | > 50 µM |
| Nc1c(F)c(=O)[nH]c(=O)n1[C@@H]1O[C@H](CO)[C@@H](O)[C@H]1O | > 4 µM |
| CCOC(=O)c1cc(=O)[nH]c(=O)n1[C@@H]1O[C@H](CO)C(O)C1O (stereo partly drawn) | > 50 µM |
| [N-]=[N+]=Nc1c(F)c(=O)[nH]c(=O)n1[C@@H]1O[C@H](CO)[C@@H](O)[C@H]1O | > 4 µM |
| CN(C)c1cc(=O)[nH]c(=O)n1C1OC(CO)C(O)C1O (stereo not drawn) | > 50 µM |
